Test system: Vaccinia virus
assaySummary: Inhibition of Vaccinia virus DNA synthesis in by rapid plate assay
Assay type: functional, organism-based
conditionDescription: Orthopoxvirus vaccinia
Can you tell me pIC50 for the items I'm about to list?
Give bare numbers, as −log10 of the molar value.

Past entries and their recorded results:
>  <compound>
CN(C)CCNC(=O)c1cc2c(s1)-c1ccc(Cl)cc1SC2

>  <pIC50>
4.43

$$$$
>  <compound>
CC(C)c1ccc(C2Nc3ccc(C(=O)O)cc3C3C=CCC32)cc1 (stereo not given)

>  <pIC50>
4.00

$$$$
>  <compound>
O=C1N=C(Nc2cccc(C(=O)O)c2)S/C1=C\c1ccc(-c2ccc(C(=O)O)cc2)o1

>  <pIC50>
4.52

$$$$
>  <compound>
OC(CN1CCNCC1)Cn1c2ccc(Br)cc2c2cc(Br)ccc21 (stereo not given)

>  <pIC50>
5.20

$$$$
>  <compound>
Cc1ccc(C)n1-c1cccc(C(=O)O)c1

>  <pIC50>
4.00

$$$$

Look at each compound and report its pIC50.
1. CN(C)CC/N=c1\cc(-c2ccccc2)oc2ccc(Cl)cc12
2. Cc1ccc2oc(-c3ccccc3)c/c(=N\CCO)c2c1
3. C[n+]1ccc(/C=C/c2ccc3c(c2)OCO3)c2ccccc21

[out]
1: 5.17; 2: 4.60; 3: 4.62

Sourced from ChEMBL document CHEMBL1140145
